test: NCI Yeast Anticancer Drug Screen. Data for the mlh1 rad18 strain (AID 175); details: S. cerevisiae mlh1 rad18 strain growth inhibition; at 50.0 µM; hits give high values
Compounds without any hit were thinned out: in the full panel of roughly 79,000, 15% have a hit. Calls of active or inactive are those of the source. No stated cut-off is given here; in the data, active means growth inhibition above about 70%; inactive means the rest.
I'd appreciate it if you could supply growth inhibition values for the items below.

Input line: Looking for the measured growth inhibition of O=C1CC2CCC(C1)S2=O (stereo not drawn) , can you help?
Output line: 18.5% (inactive)

Input line: Looking for the measured growth inhibition of `NC(=O)C(=CNC(=S)Nc1cccc(C(F)(F)F)c1)C(N)=O` , can you help?
Output line: -56% (inactive)

Input line: Looking for the measured growth inhibition of CNCCC(=O)C1CCC(OC)CC1 (stereo not drawn) , can you help?
Output line: -8.45% (inactive)

Input line: Looking for the measured growth inhibition of `Cc1cc(C)c(NC(=O)Nc2ccccc2F)cc1C` , can you help?
Output line: 8.85% (inactive)

Input line: Looking for the measured growth inhibition of `O=C(NN(C(=O)c1ccc([N+](=O)[O-])cc1)c1ccccc1)c1ccc([N+](=O)[O-])cc1` , can you help?
Output line: 13.2% (inactive)

Input line: Looking for the measured growth inhibition of `Nc1cc(C(F)(F)F)cc(C(F)(F)F)c1` , can you help?
Output line: -10.4% (inactive)

Input line: Looking for the measured growth inhibition of `CCC(=O)Nc1cc(C)c(C)cc1C` , can you help?
Output line: -8.4% (inactive)

Input line: Looking for the measured growth inhibition of O=C(c1nc2cc([N+](=O)[O-])ccc2[nH]c1=O)C(O)c1ccco1 (stereo not drawn) , can you help?
Output line: -6.35% (inactive)

Input line: Looking for the measured growth inhibition of CC1CCC2CCCCC2/C1=N\NC(N)=O (stereo not drawn) , can you help?
Output line: -16.7% (inactive)

Input line: Looking for the measured growth inhibition of `Cc1ccc2c(c1)P(=O)(O)c1cc(C)ccc1O2` , can you help?
Output line: -8.55% (inactive)

Input line: Looking for the measured growth inhibition of CC1=CC(=O)CC2(C)CCC(C(C)CC(=O)CC(C)C)CC12 (stereo not drawn) , can you help?
Output line: 91.5% (active)

Input line: Looking for the measured growth inhibition of `O=c1[nH]c(=O)c2ncn(-c3ccc([N+](=O)[O-])cn3)c2[nH]1` , can you help?
Output line: -27.6% (inactive)

Input line: Looking for the measured growth inhibition of COC(=O)C(CC(=O)Nc1ccc(C)cc1)C(=O)C(=O)Nc1c(C(C)C)cccc1C(C)C (stereo not drawn) , can you help?
Output line: -25.2% (inactive)

Input line: Looking for the measured growth inhibition of O=C(O)C(Cc1cccs1)C(=O)OCCc1ccccc1 (stereo not drawn) , can you help?
Output line: 21.7% (inactive)

Input line: Looking for the measured growth inhibition of `Cc1cc2c(c(N)c1C)C(=O)c1ccccc1C2=O` , can you help?
Output line: 6.7% (inactive)

Input line: Looking for the measured growth inhibition of `NC(=O)OCc1c(-c2ccccc2)nn(-c2ccccc2)c1COC(N)=O` , can you help?
Output line: -16.2% (inactive)

Input line: Looking for the measured growth inhibition of `COc1ccc(-c2c3c([nH]c(=S)c2C#N)CCC3)cc1` , can you help?
Output line: 34.4% (inactive)

Input line: Looking for the measured growth inhibition of CCOc1ncc(C(O)c2ccco2)c(OCC)n1 (stereo not drawn) , can you help?
Output line: -8% (inactive)

Input line: Looking for the measured growth inhibition of `Oc1ccccc1CNc1ncc(Cl)cc1Cl` , can you help?
Output line: 19.4% (inactive)

Input line: Looking for the measured growth inhibition of CC(=O)OC1CN(c2ccccc2)CC(OC(C)=O)CN(c2ccccc2)C1 (stereo not drawn) , can you help?
Output line: 31.8% (inactive)

Input line: Looking for the measured growth inhibition of `O=c1[nH]cnc2nc(N3CCN(c4ccccc4)CC3)sc12` , can you help?
Output line: 23.4% (inactive)

Input line: Looking for the measured growth inhibition of `O=C(O)C(=O)C(=O)O` , can you help?
Output line: -5.45% (inactive)

Input line: Looking for the measured growth inhibition of `CC(=O)Nc1cc2c(cc1Br)-c1ccccc1C2=O` , can you help?
Output line: -2.15% (inactive)

Input line: Looking for the measured growth inhibition of O=CNC(Cc1cnc[nH]1)C(=O)O (stereo not drawn) , can you help?
Output line: -30.2% (inactive)

Input line: Looking for the measured growth inhibition of `CCOC(=O)c1c(C(F)(F)F)oc2c1ccc1nc3nonc3nc12` , can you help?
Output line: 35% (inactive)

Input line: Looking for the measured growth inhibition of C[C@]12CC[C@@H]3c4cc(C=O)c(OCc5ccccc5)cc4CC[C@H]3[C@@H]1CCC2OCc1ccccc1 (stereo partly drawn) , can you help?
Output line: -0.95% (inactive)

Input line: Looking for the measured growth inhibition of CS(=O)(=O)OCCC(O)COS(C)(=O)=O (stereo not drawn) , can you help?
Output line: 4.1% (inactive)

Input line: Looking for the measured growth inhibition of `O=C(/C=C/c1ccsc1)c1ccsc1` , can you help?
Output line: -3.05% (inactive)

Input line: Looking for the measured growth inhibition of CC(=O)NC(Cc1ccc(OC(C)=O)c(OC(C)=O)c1)C(C)=O (stereo not drawn) , can you help?
Output line: 6% (inactive)

Input line: Looking for the measured growth inhibition of `Cc1ccc(NC(=O)CCC(CC(=O)C(C)(C)C)=NNC(=O)C(=O)NN)cc1C` , can you help?
Output line: -22.2% (inactive)

Input line: Looking for the measured growth inhibition of `Nc1nc(SCCc2ccccc2)c2[nH]cnc2n1` , can you help?
Output line: 7% (inactive)

Input line: Looking for the measured growth inhibition of CC(C)CCCC(C)C1CCC2C3CCC(O)C(C)(CCCO)C3CCC12C (stereo not drawn) , can you help?
Output line: 13.7% (inactive)

Input line: Looking for the measured growth inhibition of `N#Cc1nc(-c2ccco2)oc1N` , can you help?
Output line: -5.8% (inactive)

Input line: Looking for the measured growth inhibition of `CC(=O)Oc1ccc(/C=N\N(C)CN(C)/N=C/c2ccc(OC(C)=O)cc2)cc1` , can you help?
Output line: 17.7% (inactive)

Input line: Looking for the measured growth inhibition of `CN(C)c1ccc(/C=C(\NC(=O)c2ccccc2)C(=O)Nc2ccccc2C(=O)NCc2ccccc2)cc1` , can you help?
Output line: 30.7% (inactive)

Input line: Looking for the measured growth inhibition of CC(O)(c1ccccc1)C1CC1c1ccccc1 (stereo not drawn) , can you help?
Output line: 6.3% (inactive)

Input line: Looking for the measured growth inhibition of `CSc1cc(C)c(O)c(CO)c1` , can you help?
Output line: 3% (inactive)

Input line: Looking for the measured growth inhibition of CCC1OC(=O)C(CC)OC1=O (stereo not drawn) , can you help?
Output line: -24.4% (inactive)

Input line: Looking for the measured growth inhibition of `NC(N)=N/N=C/c1c(Cl)nc2n1CCS2` , can you help?
Output line: -6.8% (inactive)

Input line: Looking for the measured growth inhibition of CC(=O)N1C(Nc2ccccc2)CCN1c1ccccc1 (stereo not drawn) , can you help?
Output line: -8.35% (inactive)

Input line: Looking for the measured growth inhibition of `OCCN(CCO)c1ncnc2c1ncn2CCc1ccccc1` , can you help?
Output line: -2.25% (inactive)

Input line: Looking for the measured growth inhibition of `Clc1ccc(CSc2cnnc(Cl)c2SCc2ccc(Cl)cc2)cc1` , can you help?
Output line: 3.05% (inactive)

Input line: Looking for the measured growth inhibition of COC1/C=C/OC2(C)Oc3c(C)c(OC(C)=O)c4c(c3C2=O)C(=O)C=C(NC(=O)/C(C)=C\C=C\C(C)C(OC(C)=O)C(C)C(O)C(C)C(OC(C)=O)C1C)C4=O (stereo not drawn) , can you help?
Output line: 42.9% (inactive)

Input line: Looking for the measured growth inhibition of `CN(C)c1ccc(/C=C/C(=O)CC(=O)/C=C/c2ccc(N(C)C)cc2)cc1` , can you help?
Output line: 0.8% (inactive)

Input line: Looking for the measured growth inhibition of `CC(C)c1nnc(NC(=O)CSC(=S)N2CCOCC2)s1` , can you help?
Output line: -2.25% (inactive)

Input line: Looking for the measured growth inhibition of `Clc1c(-c2ccccc2)oc2nc3ccccc3nc12` , can you help?
Output line: 26.2% (inactive)

Input line: Looking for the measured growth inhibition of `COc1ccc(OC)c(NC(=O)c2ccc(Cl)c(Cl)c2)c1` , can you help?
Output line: 0.85% (inactive)

Input line: Looking for the measured growth inhibition of `CC(=O)c1ccc2c(ccc3ccccc32)c1O` , can you help?
Output line: 0.7% (inactive)
